Read-out: Insulin Like Growth Factor 1 (IGF1), IGF1 (gene 3479)
experiment: LTEA_HepaRG_IGF1: Life Technologies and Expression Analysis (LTEA) Assay for Insulin Like Growth Factor 1 (IGF1) using HepaRG (AID 2283506)
test settings: mRNA level, 48 h; actives raise or lower the signal
Active and inactive are the calls of the source. How the source made its calls: active means hit-call score of the fitted dose curve at least 0.9, where 1 is the maximum; inactive means score below 0.9.
Select the matching outcome among active, inactive

INSERT INTO assay_data (compound, classification) VALUES
  ('CCc1c(C(=O)NN2CCCCC2)nn(-c2ccc(Cl)cc2Cl)c1-c1ccc(Br)cc1', 'active'),
  ('C=CCOC(=O)c1ccccc1C(=O)OCC=C', 'inactive'),
  ('CCCCCCCCCCO', 'inactive'),
  ('C1CCC(SSC2CCCCC2)CC1', 'inactive'),
  ('CCCCCCOCCO', 'inactive');

I'd appreciate the recorded outcome for `COc1ccc2c(c1)c(CC(=O)O)c(C)n2C(=O)c1ccc(Cl)cc1` from this test. inactive

Lab log entry: CC(CO)OC(C)CO (stereo not drawn) (tested in a mixture with another compound) — outcome as called in the assay? inactive

What outcome does the record of this test show for `Cc1c(C(=O)O)c(O)cc2c1C(=O)c1c(O)c([C@@H]3O[C@H](CO)[C@@H](O)[C@H](O)[C@H]3O)c(O)c(O)c1C2=O` ? inactive

What was the test verdict on `Cc1ccc(C(C)C)c(O)c1` ? inactive

Per the records of this test, what outcome belongs to `C=CCc1ccc(O)c(OC)c1` ? inactive

Name the outcome recorded for `Cc1ccc(N(C)C)cc1` in the assay. inactive

Hi, sorry to bother you, what did the test record for `CCCc1cc(=O)[nH]c(=S)[nH]1` ? inactive

Given `Nc1nc(N)c2nc(CNc3ccc(C(=O)N[C@@H](CCC(=O)O)C(=O)O)cc3)cnc2n1` , state the outcome it received in this test. inactive

The values you see were collected from PubChem BioAssay (EPA / NIEHS).
